- Test system: Lolium rigidum
- measurement notes: Herbicidal post-emergence action, LOLRI
- Assay type: in vivo
- setup conditions: 1280 g/ha, assessed visually after ca. 3 weeks vs untreated controls
Measured herbicidal effect LOLRI accompanies every entry in the list below.
Response body: numeric value in %, unit text excluded.

CC(C)c1ccnc(F)c1C(=O)Nc1ncns1 [Example I-025] : 90

Incoming: Looking for the measured herbicidal effect LOLRI of O=C(Nc1ncns1)c1c(C(F)(F)F)ccnc1F [Example I-002] , can you help?
Outgoing: 100

Incoming: Looking for the measured herbicidal effect LOLRI of O=C(Nc1ncns1)c1cnccc1C(F)(F)F [Example I-001] , can you help?
Outgoing: 90

Incoming: Looking for the measured herbicidal effect LOLRI of O=C(Nc1ncns1)c1c(C(F)(F)F)ccnc1Cl [Example I-021] , can you help?
Outgoing: 90

Incoming: Looking for the measured herbicidal effect LOLRI of O=C(Nc1nc(Cl)ns1)c1c(C(F)(F)F)ccnc1F [Example I-009] , can you help?
Outgoing: 90

meta.source: patent US20240349726A1
